- System tested: Hop2;Mnd1 (Giardia lamblia ATCC 50803;Giardia lamblia ATCC 50803)
- Protocol text: fluorescence anisotropy
- Conditions used: 5 mM Mg2+; Fluorescence anisotropy: 20 mM Tris-HCl pH 7.5, 100 mM NaCl, 5 mM MgCl2, 25 C, 50 nM DNA, triplicate; Exo I assay conditions not in material
Endpoint name: Kd (nM)
Report the figure in nM without appending any unit label.

Data request: Quick one: give measured Kd for GCGGGTAATCCAGATGTTCCACGTGAAACAGAACAACTAA (double strand) [40 bp dsDNA]
Data returned: 100
